Molecular target: Acetylcholinesterase (Homo sapiens, UniProt P22303)
Sequence (P22303 whole entry): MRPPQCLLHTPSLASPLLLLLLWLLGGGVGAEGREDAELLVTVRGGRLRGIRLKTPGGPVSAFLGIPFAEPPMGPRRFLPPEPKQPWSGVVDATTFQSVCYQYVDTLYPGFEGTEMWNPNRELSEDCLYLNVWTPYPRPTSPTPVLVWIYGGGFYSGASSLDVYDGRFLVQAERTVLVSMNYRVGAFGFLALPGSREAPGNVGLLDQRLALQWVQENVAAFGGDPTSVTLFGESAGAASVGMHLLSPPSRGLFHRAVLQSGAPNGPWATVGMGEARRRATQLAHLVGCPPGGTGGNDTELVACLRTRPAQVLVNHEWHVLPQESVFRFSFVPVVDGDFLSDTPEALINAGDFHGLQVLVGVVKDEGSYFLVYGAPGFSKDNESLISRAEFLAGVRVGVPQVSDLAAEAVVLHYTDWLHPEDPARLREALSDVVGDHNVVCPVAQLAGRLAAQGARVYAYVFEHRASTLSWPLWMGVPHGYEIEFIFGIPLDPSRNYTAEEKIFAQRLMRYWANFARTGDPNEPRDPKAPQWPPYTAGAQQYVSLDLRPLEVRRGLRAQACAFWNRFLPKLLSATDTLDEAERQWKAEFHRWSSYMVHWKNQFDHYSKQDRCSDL
Assay: Inhibition of recombinant human AChE expressed in HEK293F cells using acetylthiocholine iodide as substrate measured over 60 secs by Ellman's method
pIC50: −log10 of the molar value.
pIC50 values for the molecules below.
reportedEndpoint: pIC50

{"smilesRepresentation": "COc1ccc(NC(S)=NCCN2CCOCC2)cc1", "reportedResult": "< 3.70"}
{"smilesRepresentation": "S=C(NCCN1CCCCC1)Nc1cccc(Cl)c1", "reportedResult": 3.72}
{"smilesRepresentation": "COc1ccc(NC(S)=NCCN2CCC(C)CC2)cc1", "reportedResult": "< 3.70"}
{"smilesRepresentation": "COc1ccccc1N=C(S)NCCN1CCOCC1", "reportedResult": "< 3.70"}
{"smilesRepresentation": "COc1ccc(NC(=S)NCCN(C)C)cc1Cl", "reportedResult": 4.34}
{"smilesRepresentation": "NS(=O)(=O)c1ccc(NC(=S)NCCN2CCOCC2)cc1", "reportedResult": "< 3.70"}
{"smilesRepresentation": "CN(C)CC/N=C(/S)Nc1ccc(S(N)(=O)=O)cc1", "reportedResult": "< 3.70"}
